- system under test: UniProt Q13464
- assay notes: Rho-kinase (ROCK1) inhibition
- Type: biochemical
- measurement context: Table 1; read-out: IC50
attribute measured: pIC50
Lab note: report pIC50 as minus log10 of the concentration in molar units, number only.

Field: pIC50 (UniProt Q13464). Entry: "c1ccc([C@H]2CN(c3cccc4cnccc34)CCN2)cc1"
5.46

###

% Inhibition values, listed per item
- system under test: Rho-kinase (ROCK1) (Homo sapiens, UniProt Q13464)
- Sequence (Q13464 whole entry, species assumed): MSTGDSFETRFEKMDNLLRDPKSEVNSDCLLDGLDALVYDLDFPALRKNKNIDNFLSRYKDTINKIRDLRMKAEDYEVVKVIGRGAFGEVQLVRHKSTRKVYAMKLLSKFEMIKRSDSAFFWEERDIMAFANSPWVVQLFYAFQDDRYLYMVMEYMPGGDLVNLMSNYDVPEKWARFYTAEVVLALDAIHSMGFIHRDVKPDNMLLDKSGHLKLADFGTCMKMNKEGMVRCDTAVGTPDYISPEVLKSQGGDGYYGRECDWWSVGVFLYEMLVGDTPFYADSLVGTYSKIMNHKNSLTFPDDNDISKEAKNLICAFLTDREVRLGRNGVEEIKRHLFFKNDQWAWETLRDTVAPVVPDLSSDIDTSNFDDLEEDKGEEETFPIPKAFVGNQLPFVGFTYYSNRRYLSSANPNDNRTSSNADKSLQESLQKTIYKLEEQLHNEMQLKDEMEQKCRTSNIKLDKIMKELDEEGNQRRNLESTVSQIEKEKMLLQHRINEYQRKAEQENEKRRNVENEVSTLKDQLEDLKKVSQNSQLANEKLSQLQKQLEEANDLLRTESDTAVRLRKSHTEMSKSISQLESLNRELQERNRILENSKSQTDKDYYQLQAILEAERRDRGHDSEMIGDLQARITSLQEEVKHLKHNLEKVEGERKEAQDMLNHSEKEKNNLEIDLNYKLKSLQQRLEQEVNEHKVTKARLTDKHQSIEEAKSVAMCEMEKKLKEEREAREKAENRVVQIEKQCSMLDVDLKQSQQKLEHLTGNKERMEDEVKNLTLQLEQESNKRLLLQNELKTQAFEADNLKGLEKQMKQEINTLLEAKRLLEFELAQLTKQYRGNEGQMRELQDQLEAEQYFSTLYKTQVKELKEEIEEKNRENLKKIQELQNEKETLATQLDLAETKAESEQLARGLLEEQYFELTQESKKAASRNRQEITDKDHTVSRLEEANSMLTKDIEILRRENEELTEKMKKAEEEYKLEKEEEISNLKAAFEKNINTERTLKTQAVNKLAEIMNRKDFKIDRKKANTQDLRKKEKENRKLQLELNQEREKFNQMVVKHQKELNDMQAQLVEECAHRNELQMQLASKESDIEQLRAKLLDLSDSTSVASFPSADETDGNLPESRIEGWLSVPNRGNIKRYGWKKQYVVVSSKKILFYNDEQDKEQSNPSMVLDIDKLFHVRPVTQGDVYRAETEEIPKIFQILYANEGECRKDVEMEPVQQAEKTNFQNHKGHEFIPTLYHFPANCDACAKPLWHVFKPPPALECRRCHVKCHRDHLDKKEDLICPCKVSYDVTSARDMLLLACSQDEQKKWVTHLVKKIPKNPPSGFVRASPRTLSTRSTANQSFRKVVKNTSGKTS
- assay notes: Rho-kinase (ROCK1) inhibition
- Assay type: biochemical
- measurement context: Table 2; first number of the cell, concentration not given
Write the value in % as a bare number.

Name the reported % Inhibition value associated with the compound "CSCC[C@H]1CN(Cc2ccncc2)CCN1"
36

Given "CSCC[C@H]1CN(Cc2cccc3ccccc23)CCN1" , state its recorded % Inhibition.
62

So what's the measured % Inhibition for this one? "O=C1CN(Cc2cccc3ccccc23)C(=O)[C@H](Cc2ccccc2)N1"
71

###

- system under test: Rho-kinase (ROCK1) (Homo sapiens)
- assay notes: Rho-kinase (ROCK1) inhibition
- Type: biochemical
- measurement context: Table 3; first number of the cell, concentration not given
Record 1 whenever Inhibition is at 80 or higher; record 0 when lower.

Check if Inhibition >= 80 (inclusive). Item: O=C(c1cccc2cnccc12)N1CCN[C@@H](Cc2ccccc2)C1 [IP-IV-15]
0

Check this compound for Inhibition at or above 80: CC(C)(C)OC(=O)N1CCN(C(=O)c2cccc3cnccc23)C[C@@H]1Cc1ccccc1 [IP-III-153]
1

Given CC(C)[C@H]1CN(Cc2cccc3cnccc23)CCN1 [IP-IV-107] , state whether its Inhibition is at least 80.
0

###

Listed next: entries and their corresponding IC50.
- system under test: Rho-kinase (ROCK1) (Homo sapiens, UniProt Q13464)
- assay notes: Rho-kinase (ROCK1) inhibition
- Type: biochemical
- measurement context: Table 4; read-out: IC50
Numbers only; they are read as µM.

Return reported IC50; argument: O=C(Nc1ccncc1)OC1CCN(Cc2ccccc2)CC1 [Compound 14b]
56

Name the reported IC50 value associated with the compound O=C(Nc1ccncc1)NC1CCN(Cc2ccccc2)CC1 [Compound 14a]
90

Quick check: IC50 of O=C(Nc1ccncc1)NC1CCNCC1 [Compound 15a] ?
55

###

- system under test: Rho-kinase (ROCK1) (Homo sapiens, UniProt Q13464)
- assay notes: Rho-kinase (ROCK1) inhibition
- Format: biochemical
- measurement context: Table 2; @ 100 μM
attribute measured: % Inhibition (@ 100 μM) (%)
Give just the number in %; leave the unit off.

What % Inhibition (@ 100 μM) value was documented for this molecule, O=C1CN(Cc2ccccc2)C(=O)[C@H](Cc2ccccc2)N1 [Compound 3e] ?
0.75

---
So what's the measured % Inhibition (@ 100 μM) for this one? c1ccc(C[C@H]2CN(Cc3cccc4ccccc34)CCN2)cc1 [Compound 6e, N-Naphtylmethyl-3-benzyl piperazine]
20.4

Bench note: what % Inhibition (@ 100 μM) did CSCC[C@H]1CN(Cc2cccc3ccccc23)CCN1 [Compound 6b] show?
11.9

Item O=C1CN(Cc2ccncc2)C(=O)[C@H](CO)N1 [Compound 1d] has what recorded % Inhibition (@ 100 μM)?
1.73

GET /values?readout=% Inhibition (@ 100 μM)&item= CSCC[C@@H]1NC(=O)CN(Cc2ccncc2)C1=O [Compound 1b]
1.96

Please report the recorded % Inhibition (@ 100 μM) for CSCC[C@H]1CN(Cc2ccccc2)CCN1 [Compound 4b] .
0.53

Could you share which % Inhibition (@ 100 μM) value was measured for OC[C@H]1CN(Cc2ccncc2)CCN1 [Compound 2d] ?
3.73

# get_value(readout='% Inhibition (@ 100 μM)', item= O=C1CN(Cc2cccc3ccccc23)C(=O)[C@H](Cc2ccccc2)N1 [Compound 5e] )
−1.87

Which % Inhibition (@ 100 μM) value belongs to CSCC[C@@H]1NC(=O)CN(Cc2cccc3ccccc23)C1=O [Compound 5b] ?
−1.48

Query: % Inhibition (@ 100 μM); subject: CSCC[C@H]1CN(Cc2ccncc2)CCN1 [Compound 2b]
4.35

Entry source: patent US8993760B2
